PROCEDURE SUMMARY: Solubility of the powder for reconstitution (saturated solution, filtered, HPLC)
Format: physicochemical
TEST CONTEXT: purified water, water, thermodynamic from solid, Water (Table 3a)
MEASURE: solubility (µg/mL)

1) COc1ccc2[nH]cc(CCNC(C)=O)c2c1	1800

* * *

PROCEDURE SUMMARY: Solubility of the powder for reconstitution (saturated solution, filtered, HPLC)
Type: physicochemical
TEST CONTEXT: water/PEG-400 (75/25), aqueous with cosolvent or surfactant or cyclodextrin, thermodynamic from solid, Water-PEG 75/25, PEG 400
MEASURE: solubility (mg/mL)

1. COc1ccc2[nH]cc(CCNC(C)=O)c2c1	14.5

* * *

PROCEDURE SUMMARY: Solubility of the powder for reconstitution (saturated solution, filtered, HPLC)
Assay type: physicochemical
TEST CONTEXT: water/ethanol (70/30), aqueous with cosolvent or surfactant or cyclodextrin, thermodynamic from solid, Water-Ethanol ratio 70-30
MEASURE: solubility (mg/mL)

1. COc1ccc2[nH]cc(CCNC(C)=O)c2c1 [Melatonin raw material, Melatonin]	19.7

* * *

PROCEDURE SUMMARY: Solubility of the powder for reconstitution (saturated solution, filtered, HPLC)
Type: physicochemical
TEST CONTEXT: water/PEG-200 (75/25), aqueous with cosolvent or surfactant or cyclodextrin, thermodynamic from solid, Water-PEG 75/25, PEG 200
MEASURE: solubility (mg/mL)

1) COc1ccc2[nH]cc(CCNC(C)=O)c2c1 [Melatonin raw material, Melatonin]	10.5

* * *

PROCEDURE SUMMARY: Solubility of the powder for reconstitution (saturated solution, filtered, HPLC)
Type: physicochemical
TEST CONTEXT: water/PEG-350 (75/25), aqueous with cosolvent or surfactant or cyclodextrin, thermodynamic from solid, Water-PEG 75/25, PEG 350
MEASURE: solubility

1. COc1ccc2[nH]cc(CCNC(C)=O)c2c1	16.9 mg/mL

* * *

PROCEDURE SUMMARY: Solubility of the powder for reconstitution (saturated solution, filtered, HPLC)
Assay type: physicochemical
TEST CONTEXT: water/ethanol (90/10), aqueous with cosolvent or surfactant or cyclodextrin, thermodynamic from solid, Water-Ethanol ratio 90-10
MEASURE: solubility (µg/mL)

1) COc1ccc2[nH]cc(CCNC(C)=O)c2c1	3700

* * *

PROCEDURE SUMMARY: Solubility of the powder for reconstitution (saturated solution, filtered, HPLC)
Format: physicochemical
TEST CONTEXT: water/ethanol (80/20), aqueous with cosolvent or surfactant or cyclodextrin, thermodynamic from solid, Water-Ethanol ratio 80-20
MEASURE: solubility (µg/mL)

1. COc1ccc2[nH]cc(CCNC(C)=O)c2c1 [Melatonin raw material, Melatonin]	8200
